The reported measurements were obtained from patent US20230272099A1.

So I've got a bunch of binders here, and I need their binding amount values.
Molecular target: T1, hCD137 (FXa digested) (human, UniProt Q07011 24-186)
T1 construct: Factor Xa digestion and Protein A removed the Fc; also called human CD137 extracellular domain
T1 sequence (Q07011 other isoform, or with tags, fused parts or gaps limits assumed): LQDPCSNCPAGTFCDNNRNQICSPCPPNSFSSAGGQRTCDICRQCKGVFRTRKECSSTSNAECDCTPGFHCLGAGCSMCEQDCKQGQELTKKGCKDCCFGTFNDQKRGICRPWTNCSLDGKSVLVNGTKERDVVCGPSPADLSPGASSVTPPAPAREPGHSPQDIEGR
Assay: SPR, 1 mM AMP
One number for each entry, in RU.

Here's what some known entries look like.
BINDER	UNIT OF MEASUREMENT	MEASURED VALUE
dBBAT122-P253 (antibody, human IgG1, lambda, V domains shown) VH: EVQLVESGGDLVKPGGGLRLSCAASGFTFSTYTMNWVRQAPGKGLEWVSSISSRSNYKFYADSVKGRFTISRDNAKNSLYLQMNSLRAEDTAVYYCARFGGKNNMNWVFDYWGQGTLVTVSS VL: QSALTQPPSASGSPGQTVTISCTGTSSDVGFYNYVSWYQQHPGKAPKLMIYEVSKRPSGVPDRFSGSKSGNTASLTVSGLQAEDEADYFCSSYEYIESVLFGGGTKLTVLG	RU	5.7
dBBAT119-P253 (antibody, human IgG1, lambda, V domains shown, also called dBBAT119H-P253/dBBAT119L-LamLib) VH: EVQLVESGGDLVKPGGGLRLSCAASGFTFSTFTMNWVRQAPGKGLEWVSSISSRSNYKSYADSVKGRFTISRDNAKNSLYLQMNSLRAEDTAVYYCARYGAKNFMNWVFDYWGQGTLVTVSS VL: QSALTQPPSASGSPGQTVTISCTGTSTDVGFYNYVSWYQQHPGKAPKLMIYYTSKRPSGVPDRFSGSKSGNTASLTVSGLQAEDEADYFCSSYRYDHQVSFGGGTKLTVLG	RU	58.6

Item under review: dBBAT091-P253 (antibody, human IgG1, lambda, V domains shown) VH: EVQLVESGGDLVKPGGGLRLSCAASGFTFSSYTMNWVRQAPGKGLEWVSSISSRSNYIDYADSVKGRFTISRDNAKNSLYLQMNSLRAEDTAVYYCARFGKKNDMNWVFDYWGQGTLVTVSS VL: QSALTQPPSASGSPGQTVTISCTGTSTDVGFYNYVSWYQQHPGKAPKLMIYEGSKRPSGVPDRFSGSKSGNTASLTVSGLQAEDEADYFCSSYEYTESVLFGGGTKLTVLG . Reported binding amount? 2.9
